Measured values drawn from ChEMBL document CHEMBL1147708 for this set.

System: Mus musculus
Assay: AUC(0-tz) in CD1 mouse at 5 mg/kg, po co-administered with 3-[6-(2-dimethylamino- 1-imidazol-1-yl-butyl)-naphthalen-2-yloxy]- 2,2-dimethyl-propionic acid at 10 mg/kg, po
Assay type: ADME, organism-based, Plasma
Conditions: in vivo
QUANTITY_KIND: AUC (ng·h/mL)

1. CC1=C(/C=C/C(C)=C/C=C/C(C)=C/C(=O)O)C(C)(C)CCC1 :: 9900

====

Experiment: in vivo
Conditions: CD1, mouse, iv, 1 mg/kg
Description: Terminal half life in CD1 mouse at 1 mg/kg, iv
QUANTITY_KIND: half-life (min)

1) CC[C@H]([C@@H](c1ccc2cc(OCC(C)(C)C(=O)O)ccc2c1)n1ccnc1)N(C)C :: 166
2) CCN(C)[C@H](C)[C@@H](c1ccc2cc(OCC3(C(=O)O)CCCC3)ccc2c1)n1ccnc1 :: 426
3) C[C@H]([C@@H](c1ccc2cc(OCC3(C(=O)O)CCCC3)ccc2c1)n1ccnc1)N(C)C :: 149
4) C[C@H]([C@@H](c1ccc2cc(OCC3(C(=O)O)CCCCC3)ccc2c1)n1ccnc1)N(C)C :: 148

====

Experiment: Plasma concentration in CD1 mouse at 5 mg/kg, po after 8 hrs co-administered with 3-[6-(2-dimethylamino- 1-imidazol-1-yl-propyl)-naphthalen-2-yloxy]- 2,2-dimethyl-propionic acid at 10 mg/kg, po
Type: ADME, organism-based
QUANTITY_KIND: concentration at 8 h (nM)

1. CC1=C(/C=C/C(C)=C/C=C/C(C)=C/C(=O)O)C(C)(C)CCC1 [TRETINOIN] :: 40

====

Assay: in vivo
Conditions: CD1, mouse, po, 5 mg/kg
QUANTITY_KIND: Cmax

1) CC[C@H]([C@@H](c1ccc2cc(OCC(C)(C)C(=O)O)ccc2c1)n1ccnc1)N(C)C :: 6.7 µM
2) CCN(C)[C@H](C)[C@@H](c1ccc2cc(OCC3(C(=O)O)CCCC3)ccc2c1)n1ccnc1 :: 13 µM
3) C[C@H]([C@@H](c1ccc2cc(OCC3(C(=O)O)CCCCC3)ccc2c1)n1ccnc1)N(C)C :: 23 µM
4) C[C@H]([C@@H](c1ccc2cc(OCC3(C(=O)O)CCCC3)ccc2c1)n1ccnc1)N(C)C :: 5.5 µM

====

Test: Plasma concentration in CD1 mouse at 5 mg/kg, po after 2 hrs co-administered with 3-[6-(2-dimethylamino- 1-imidazol-1-yl-propyl)-naphthalen-2-yloxy]- 2,2-dimethyl-propionic acid at 10 mg/kg, po
Assay type: ADME, organism-based
QUANTITY_KIND: concentration at 2 h (µM)

1. CC1=C(/C=C/C(C)=C/C=C/C(C)=C/C(=O)O)C(C)(C)CCC1 :: 6.66

====

Target: Cytochrome P450 26A1 (Homo sapiens, UniProt O43174)
Sequence (O43174 whole entry): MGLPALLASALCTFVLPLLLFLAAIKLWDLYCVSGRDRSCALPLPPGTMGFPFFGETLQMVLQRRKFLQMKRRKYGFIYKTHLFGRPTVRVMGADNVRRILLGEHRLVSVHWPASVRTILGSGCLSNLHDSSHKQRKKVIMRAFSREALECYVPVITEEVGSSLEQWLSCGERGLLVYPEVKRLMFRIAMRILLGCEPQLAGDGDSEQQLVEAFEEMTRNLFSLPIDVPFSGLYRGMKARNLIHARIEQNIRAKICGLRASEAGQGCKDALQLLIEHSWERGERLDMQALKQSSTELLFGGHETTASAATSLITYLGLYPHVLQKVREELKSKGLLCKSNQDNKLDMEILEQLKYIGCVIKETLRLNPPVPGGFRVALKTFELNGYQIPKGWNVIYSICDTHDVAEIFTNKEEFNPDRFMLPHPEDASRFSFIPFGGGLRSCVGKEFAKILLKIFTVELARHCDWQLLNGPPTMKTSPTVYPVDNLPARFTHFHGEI
Assay: Inhibition of CYP26 expressed in human T47D cell line
pIC50: −log10 of the molar value.
Label not fulfilled if pIC50 falls below 8; label fulfilled in every other case.

1. CN(C)C[C@@H](c1ccc2cc(OCC(C)(C)C(=O)O)ccc2c1)n1ccnc1 :: not fulfilled
2. C[C@H]([C@@H](c1ccc2cc(OCC3(C(=O)O)CCOCC3)ccc2c1)n1ccnc1)N(C)C :: not fulfilled
3. C[C@H]([C@@H](c1ccc2cc(OCC(C)(C)C(=O)O)ccc2c1)n1ccnc1)N1CCCC1 :: not fulfilled
4. CN(C)C(C)(C)[C@@H](c1ccc2cc(OCC(C)(C)C(=O)O)ccc2c1)n1ccnc1 :: not fulfilled
5. CC(C)N(C)[C@H](C)[C@@H](c1ccc2cc(OCC(C)(C)C(=O)O)ccc2c1)n1ccnc1 :: fulfilled
6. C[C@H]([C@@H](c1ccc2cc(OCC3(C(=O)O)CC3)ccc2c1)n1ccnc1)N(C)C :: not fulfilled
7. CCN(CC)[C@H](C)[C@@H](c1ccc2cc(OCC3(C(=O)O)CCCC3)ccc2c1)n1ccnc1 :: fulfilled
8. C[C@H]([C@@H](c1ccc2cc(OCC3(C(=O)O)CCC3)ccc2c1)n1ccnc1)N(C)C :: not fulfilled
9. CC(C)N(C)[C@H](C)[C@@H](c1ccc2cc(OCC3(C(=O)O)CCCC3)ccc2c1)n1ccnc1 :: fulfilled
10. CC[C@H]([C@@H](c1ccc2cc(OCC(C)(C)C(=O)O)ccc2c1)n1ccnc1)N(C)C :: fulfilled
11. CCN(CC)[C@H](C)[C@@H](c1ccc2cc(OCC(C)(C)C(=O)O)ccc2c1)n1ccnc1 :: fulfilled
12. C[C@H]([C@@H](c1ccc2cc(OCC(C)(C)C(=O)O)ccc2c1)n1ccnc1)N(C)C1CCCCC1 :: not fulfilled
13. C[C@H]([C@@H](c1ccc2cc(OCC(C)(C)C(=O)O)ccc2c1)n1ccnc1)N1CCOCC1 :: not fulfilled
14. CCCCN(C)[C@H](C)[C@@H](c1ccc2cc(OCC(C)(C)C(=O)O)ccc2c1)n1ccnc1 :: not fulfilled
15. CCC(CC)(COc1ccc2cc([C@H]([C@@H](C)N(C)C)n3ccnc3)ccc2c1)C(=O)O :: not fulfilled
16. CCN(C)[C@H](C)[C@@H](c1ccc2cc(OCC3(C(=O)O)CCCC3)ccc2c1)n1ccnc1 :: fulfilled

====

Species: Mus musculus
Conditions: in vivo, po, 5 mg/kg
The following compounds are listed with their measured AUC values.
QUANTITY_KIND: AUC (ng·h/mL)

1) C[C@H]([C@@H](c1ccc2cc(OCC3(C(=O)O)CCCCC3)ccc2c1)n1ccnc1)N(C)C :: 17500
2) CC[C@H]([C@@H](c1ccc2cc(OCC(C)(C)C(=O)O)ccc2c1)n1ccnc1)N(C)C :: 5430
3) CCN(C)[C@H](C)[C@@H](c1ccc2cc(OCC3(C(=O)O)CCCC3)ccc2c1)n1ccnc1 :: 18900
4) C[C@H]([C@@H](c1ccc2cc(OCC3(C(=O)O)CCCC3)ccc2c1)n1ccnc1)N(C)C :: 5800

====

Tested on: Mus musculus
Experiment: AUC(0-tz) in CD1 mouse at 5 mg/kg, po co-administered with 3-[6-(2-dimethylamino- 1-imidazol-1-yl-propyl)-naphthalen-2-yloxy]- 2,2-dimethyl-propionic acid at 10 mg/kg, po
Type: ADME, organism-based, Plasma
Settings: in vivo
QUANTITY_KIND: AUC (ng·h/mL)

1) CC1=C(/C=C/C(C)=C/C=C/C(C)=C/C(=O)O)C(C)(C)CCC1 :: 6470

====

Biological target: Cytochrome P450 1A2 (Homo sapiens)
Sequence (P05177 whole entry): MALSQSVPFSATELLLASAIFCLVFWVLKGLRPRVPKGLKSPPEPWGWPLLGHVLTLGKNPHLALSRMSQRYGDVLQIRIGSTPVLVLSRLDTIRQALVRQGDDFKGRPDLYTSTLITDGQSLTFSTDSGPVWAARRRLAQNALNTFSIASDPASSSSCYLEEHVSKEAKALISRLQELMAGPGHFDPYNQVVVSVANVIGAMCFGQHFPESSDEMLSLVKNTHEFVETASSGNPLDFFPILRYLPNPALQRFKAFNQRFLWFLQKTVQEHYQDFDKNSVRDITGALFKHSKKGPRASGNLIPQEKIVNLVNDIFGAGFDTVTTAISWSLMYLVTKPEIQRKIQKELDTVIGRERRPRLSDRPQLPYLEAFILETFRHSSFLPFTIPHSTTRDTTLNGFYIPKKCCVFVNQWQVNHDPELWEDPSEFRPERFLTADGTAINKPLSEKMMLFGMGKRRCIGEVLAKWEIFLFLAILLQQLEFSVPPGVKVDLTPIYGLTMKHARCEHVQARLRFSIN
pIC50: −log10 of the molar value.
QUANTITY_KIND: pIC50

1) CCN(C)[C@H](C)[C@@H](c1ccc2cc(OCC3(C(=O)O)CCCC3)ccc2c1)n1ccnc1 :: < 5.30
2) C[C@H]([C@@H](c1ccc2cc(OCC3(C(=O)O)CCCC3)ccc2c1)n1ccnc1)N(C)C :: < 5.30

====

System: Mus musculus
Assay: AUC(0-tz) in CD1 mouse at 5 mg/kg, po
Type: ADME, organism-based, Plasma
Set-up: dose 5 mg/kg, route oral
Conditions: in vivo
QUANTITY_KIND: AUC (ng·h/mL)

1) CC1=C(/C=C/C(C)=C/C=C/C(C)=C/C(=O)O)C(C)(C)CCC1 [TRETINOIN] :: 1690
